Data origin, for the record: patent US20220289794A1

Tested on: Enterococcus faecium ATCC 27270
Applied Conditions: E. faecium ATCC 27270
Non-standard residues stand in square brackets, D forms with d. Residues, ends and D or L forms follow the SMILES beside them. Dip = N[C@H](C(=O)O)C(c1ccccc1)c1ccccc1; 2Nal = N[C@@H](Cc1ccc2ccccc2c1)C(=O)O
Value Kind: Broad-spectrum activity E. faecium (ATCC 27270)

[
  {
    "Compound": "N=C(N)NCCC[C@@H]1NC(=O)[C@H](CCCNC(=N)N)NC(=O)[C@H](C(c2ccccc2)c2ccccc2)NC(=O)[C@H](C(c2ccccc2)c2ccccc2)NC(=O)[C@H](CCCNC(=N)N)NC(=O)[C@H](CCCNC(=N)N)NC(=O)[C@H](C(c2ccccc2)c2ccccc2)NC1=O [IFX-016, c[Arg-Dip-Arg-Arg-Dip-Dip-Arg]] (cyclo(R[Dip]RR[Dip][Dip]R))",
    "Reported Measurement": 3.1
  },
  {
    "Compound": "N=C(N)NCCC[C@@H]1NC(=O)[C@H](CCCNC(=N)N)NC(=O)[C@H](Cc2ccc3ccccc3c2)NC(=O)[C@H](Cc2ccc3ccccc3c2)NC(=O)[C@H](CCCNC(=N)N)NC(=O)[C@H](CCCNC(=N)N)NC(=O)[C@H](Cc2ccc3ccccc3c2)NC1=O [IFX-019, c[Arg-Arg-NaI-NaI-Arg-Arg-NaI]] (cyclo(R[2Nal]RR[2Nal][2Nal]R))",
    "Reported Measurement": 1.5
  },
  {
    "Compound": "N=C(N)NCCC[C@@H]1NC(=O)[C@H](CCCNC(=N)N)NC(=O)[C@H](C(c2ccccc2)c2ccccc2)NC(=O)[C@H](C(c2ccccc2)c2ccccc2)NC(=O)[C@H](CCCNC(=N)N)NC(=O)[C@H](CCCNC(=N)N)NC(=O)[C@H](C(c2ccccc2)c2ccccc2)NC1=O [IFX-017, c[Arg-Arg-Dip-Dip-Arg-Arg-Dip]] (cyclo(R[Dip]RR[Dip][Dip]R))",
    "Reported Measurement": 3.1
  },
  {
    "Compound": "N=C(N)NCCC[C@@H]1NC(=O)[C@H](CCCNC(=N)N)NC(=O)[C@H](C(c2ccccc2)c2ccccc2)NC(=O)[C@H](C(c2ccccc2)c2ccccc2)NC(=O)[C@H](C(c2ccccc2)c2ccccc2)NC(=O)[C@H](CCCNC(=N)N)NC1=O [IFX-002, c[Arg-Arg-Arg-Dip-Dip-Dip]] (cyclo([Dip][Dip][Dip]RRR))",
    "Reported Measurement": 6.2
  },
  {
    "Compound": "N=C(N)NCCC[C@@H]1NC(=O)[C@H](CCCNC(=N)N)NC(=O)[C@H](CCCNC(=N)N)NC(=O)[C@H](C(c2ccccc2)c2ccccc2)NC(=O)[C@H](C(c2ccccc2)c2ccccc2)NC(=O)[C@H](C(c2ccccc2)c2ccccc2)NC(=O)[C@H](CCCNC(=N)N)NC1=O [IFX-008, c[Arg-Arg-Arg-Arg-Dip-Dip-Dip]] (cyclo(RRRR[Dip][Dip][Dip]))",
    "Reported Measurement": 3.1
  },
  {
    "Compound": "N=C(N)NCCC[C@@H]1NC(=O)[C@H](CCCNC(=N)N)NC(=O)[C@H](C(c2ccccc2)c2ccccc2)NC(=O)[C@H](Cc2c[nH]c3ccccc23)NC(=O)[C@H](C(c2ccccc2)c2ccccc2)NC(=O)[C@H](CCCNC(=N)N)NC1=O [IFX-021, c[Arg-Arg-Arg-Dip-Trp-Dip]] (cyclo([Dip]RRR[Dip]W))",
    "Reported Measurement": 6.2
  },
  {
    "Compound": "N=C(N)NCCC[C@@H]1NC(=O)[C@H](CCCNC(=N)N)NC(=O)[C@H](Cc2ccc3ccccc3c2)NC(=O)[C@H](Cc2ccc3ccccc3c2)NC(=O)[C@H](CCCNC(=N)N)NC(=O)[C@H](CCCNC(=N)N)NC(=O)[C@H](Cc2ccc3ccccc3c2)NC1=O [IFX-018, c[Arg-NaI-Arg-Arg-NaI-NaI-Arg]] (cyclo(R[2Nal]RR[2Nal][2Nal]R))",
    "Reported Measurement": 1.5
  },
  {
    "Compound": "N=C(N)NCCC[C@@H]1NC(=O)[C@H](CCCNC(=N)N)NC(=O)[C@H](CCCNC(=N)N)NC(=O)[C@H](C(c2ccccc2)c2ccccc2)NC(=O)[C@H](C(c2ccccc2)c2ccccc2)NC(=O)[C@H](Cc2c[nH]c3ccccc23)NC1=O [IFX-020, c[Arg-Arg-Arg-Trp-Dip-Dip]] (cyclo([Dip][Dip]RRRW))",
    "Reported Measurement": 3.1
  }
]

====

List of MIC P. aeruginosa ATCC 27883 values.
Tested on: Pseudomonas aeruginosa (ATCC 27883)
Applied Conditions: ATCC 27883
Non-standard residues stand in square brackets, D forms with d. Residues, ends and D or L forms follow the SMILES beside them. Dip = N[C@H](C(=O)O)C(c1ccccc1)c1ccccc1; 2Nal = N[C@@H](Cc1ccc2ccccc2c1)C(=O)O; d2Nal = N[C@H](Cc1ccc2ccccc2c1)C(=O)O

[
  {
    "Compound": "N=C(N)NCCC[C@@H]1NC(=O)[C@H](CCCNC(=N)N)NC(=O)[C@H](C(c2ccccc2)c2ccccc2)NC(=O)[C@H](C(c2ccccc2)c2ccccc2)NC(=O)[C@H](C(c2ccccc2)c2ccccc2)NC(=O)[C@H](CCCNC(=N)N)NC1=O [IFX-002, c[Arg-Arg-Arg-Dip-Dip-Dip]] (cyclo([Dip][Dip][Dip]RRR))",
    "MIC P. aeruginosa ATCC 27883": "12.5 µg/mL"
  },
  {
    "Compound": "N=C(N)NCCC[C@@H]1NC(=O)[C@@H](CCCNC(=N)N)NC(=O)[C@H](CCCNC(=N)N)NC(=O)[C@@H](CCCNC(=N)N)NC(=O)[C@@H](Cc2ccc3ccccc3c2)NC(=O)[C@H](Cc2ccc3ccccc3c2)NC(=O)[C@@H](Cc2ccc3ccccc3c2)NC1=O [IFX-083, c[arg-Arg-arg-Arg-naI-NaI-naI]] (cyclo([dR]R[dR]R[d2Nal][2Nal][d2Nal]))",
    "MIC P. aeruginosa ATCC 27883": "12.5 µg/mL"
  },
  {
    "Compound": "N=C(N)NCCC[C@@H]1NC(=O)[C@H](CCCNC(=N)N)NC(=O)[C@H](CCCNC(=N)N)NC(=O)[C@@H](Cc2ccc3ccccc3c2)NC(=O)[C@@H](Cc2ccc3ccccc3c2)NC(=O)[C@@H](Cc2c[nH]c3ccccc23)NC(=O)[C@H](CCCNC(=N)N)NC1=O [IFX-114, c[Arg-Arg-Arg-Arg-trp-naI-naI]] (cyclo(RRRR[dW][d2Nal][d2Nal]))",
    "MIC P. aeruginosa ATCC 27883": "25 µg/mL"
  }
]

====

Entries and their MIC P. aeruginosa ATCC 27883 values follow.
Tested on: Pseudomonas aeruginosa (ATCC 27883)
Applied Conditions: ATCC 27883
Non-standard residues stand in square brackets, D forms with d. Residues, ends and D or L forms follow the SMILES beside them. dDip = N[C@@H](C(=O)O)C(c1ccccc1)c1ccccc1; Dip = N[C@H](C(=O)O)C(c1ccccc1)c1ccccc1; d2Nal = N[C@H](Cc1ccc2ccccc2c1)C(=O)O; Dab = NCC[C@H](N)C(=O)O

[
  {
    "Compound": "N=C(N)NCCC[C@@H]1NC(=O)[C@H](CCN)NC(=O)[C@@H](CCCNC(=N)N)NC(=O)[C@H](CCCNC(=N)N)NC(=O)[C@@H](Cc2ccc3ccccc3c2)NC(=O)[C@@H](Cc2ccc3ccccc3c2)NC(=O)[C@H](Cc2c[nH]c3ccccc23)NC(=O)[C@H](CCN)NC(=O)[C@@H](CCCNC(=N)N)NC1=O [IFX-059, c[Arg-arg-Dab-Arg-arg-Dab-Trp-naI-naI]] (cyclo([Dab]R[dR][Dab]W[d2Nal][d2Nal]R[dR]))",
    "Target System": "Pseudomonas aeruginosa (ATCC 27883)",
    "MIC P. aeruginosa ATCC 27883 (mg/L)": 32
  },
  {
    "Compound": "N=C(N)NCCC[C@H]1NC(=O)[C@@H](CCCNC(=N)N)NC(=O)[C@@H](CCCNC(=N)N)NC(=O)[C@@H](Cc2c[nH]c3ccccc23)NC(=O)[C@@H](Cc2c[nH]c3ccccc23)NC(=O)[C@@H](Cc2c[nH]c3ccccc23)NC(=O)[C@@H](Cc2c[nH]c3ccccc23)NC(=O)[C@@H](CCCNC(=N)N)NC1=O [IFX-032, c[arg-arg-arg-arg-trp-trp-trp-trp]] (cyclo([dR][dR][dR][dR][dW][dW][dW][dW]))",
    "Target System": "Pseudomonas aeruginosa (ATCC 27883)",
    "MIC P. aeruginosa ATCC 27883 (mg/L)": 25
  },
  {
    "Compound": "N=C(N)NCCC[C@@H]1NC(=O)[C@@H](CCCNC(=N)N)NC(=O)[C@H](CCCNC(=N)N)NC(=O)[C@@H](CCCNC(=N)N)NC(=O)[C@@H](C(c2ccccc2)c2ccccc2)NC(=O)[C@@H](C(c2ccccc2)c2ccccc2)NC(=O)[C@@H](C(c2ccccc2)c2ccccc2)NC1=O [IFX-068, c[arg-Arg-arg-Arg-dip-dip-dip]] (cyclo([dR]R[dR]R[dDip][dDip][dDip]))",
    "Target System": "Pseudomonas aeruginosa (ATCC 27883)",
    "MIC P. aeruginosa ATCC 27883 (mg/L)": 12.5
  },
  {
    "Compound": "N=C(N)NCCC[C@@H]1NC(=O)[C@@H](CCCNC(=N)N)NC(=O)[C@H](CCCNC(=N)N)NC(=O)[C@@H](CCCNC(=N)N)NC(=O)[C@@H](C(c2ccccc2)c2ccccc2)NC(=O)[C@H](C(c2ccccc2)c2ccccc2)NC(=O)[C@@H](C(c2ccccc2)c2ccccc2)NC1=O [IFX-069, c[arg-Arg-arg-Arg-dip-Dip-dip]] (cyclo([dR]R[dR]R[dDip][Dip][dDip]))",
    "Target System": "Pseudomonas aeruginosa (ATCC 27883)",
    "MIC P. aeruginosa ATCC 27883 (mg/L)": 6.2
  },
  {
    "Compound": "N=C(N)NCCC[C@@H]1NC(=O)[C@H](CCCNC(=N)N)NC(=O)[C@H](CCCNC(=N)N)NC(=O)[C@H](C(c2ccccc2)c2ccccc2)NC(=O)[C@H](C(c2ccccc2)c2ccccc2)NC(=O)[C@H](C(c2ccccc2)c2ccccc2)NC(=O)[C@H](CCCNC(=N)N)NC(=O)[C@H](CCCNC(=N)N)NC1=O [IFX-012, c[Arg-Arg-Arg-Arg-Arg-Dip-Dip-Dip]] (cyclo([Dip][Dip][Dip]RRRRR))",
    "Target System": "Pseudomonas aeruginosa (ATCC 27883)",
    "MIC P. aeruginosa ATCC 27883 (mg/L)": 25
  }
]
